Cited source: patent US6821991B2

TESTED_SYSTEM: β3-adrenergic receptor (Homo sapiens, UniProt P13945)
Construct: Full length β3 AR clones (402 amino acids) containing the last 6 amino acids of hβ3-AR are prepared
Sequence (P13945 whole entry): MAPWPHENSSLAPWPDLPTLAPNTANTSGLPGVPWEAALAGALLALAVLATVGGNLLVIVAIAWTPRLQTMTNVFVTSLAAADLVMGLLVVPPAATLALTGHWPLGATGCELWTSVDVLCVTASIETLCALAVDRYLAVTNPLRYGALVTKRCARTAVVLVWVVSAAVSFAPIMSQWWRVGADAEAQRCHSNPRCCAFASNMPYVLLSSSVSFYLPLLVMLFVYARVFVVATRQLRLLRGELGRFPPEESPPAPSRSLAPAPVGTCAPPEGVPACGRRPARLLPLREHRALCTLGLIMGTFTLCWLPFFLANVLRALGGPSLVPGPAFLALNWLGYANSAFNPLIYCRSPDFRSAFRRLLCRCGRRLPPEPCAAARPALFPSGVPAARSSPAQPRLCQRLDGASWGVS
TEST_DESCRIPTION: cAMP accumulation (SPA) in CHO cells transfected with human β3 adrenergic receptor
EXPERIMENTAL_CONDITIONS: CHO cells expressing human β3-AR; cAMP; 30 min, 37° C.; 10^-9 M to 10^-5 M
EXPERIMENTAL_READOUT: EC50 (µM)

> print(dat)
                                    compound                             tested.system  readout.unit  quantitative.result
 1  Cl.O=C1N=C(N2CCCCC2)SC1=Cc1ccc(OCCNC[C@H](O)COc2ccccc2)cc1 [Example 32, hydrochloride salt]  β3-adrenergic receptor (Homo sapiens, UniProt P13945)            µM                0.088
 2  CN(C)CCCNC1=NC(=O)C(=Cc2ccc(N3CCC(NC[C@H](O)COc4ccccc4)CC3)cc2)S1 [Example 26]  β3-adrenergic receptor (Homo sapiens, UniProt P13945)            µM                0.156
 3  O=C1N=C(N2CCOCC2)SC1=Cc1ccc(N2CCC(NC[C@H](O)COc3ccc(O)cc3)CC2)cc1 [Example 23]  β3-adrenergic receptor (Homo sapiens, UniProt P13945)            µM                0.076
 4  CN1CCN(C2=NC(=O)C(=Cc3ccc(N4CCC(NC[C@H](O)COc5ccc(O)cc5)CC4)cc3)S2)CC1 [Example 24]  β3-adrenergic receptor (Homo sapiens, UniProt P13945)            µM                 1.92
 5  O=C1N=C(NCCN2CCOCC2)SC1=Cc1ccc(N2CCC(NC[C@H](O)COc3cccc4[nH]c(=O)[nH]c34)CC2)cc1 [Example 2]  β3-adrenergic receptor (Homo sapiens, UniProt P13945)            µM                0.022
 6  O=C1N=C(NC2CCN(Cc3ccccc3)CC2)SC1=Cc1ccc(N2CCC(NC[C@H](O)COc3ccc(O)cc3)CC2)cc1 [Example 4]  β3-adrenergic receptor (Homo sapiens, UniProt P13945)            µM                 0.23
 7  CCOC(=O)CC[C@H](NC1=NC(=O)C(=Cc2ccc(N3CCC(NC[C@H](O)c4ccc(O)c(NS(C)(=O)=O)c4)CC3)cc2)S1)C(=O)OCC [Example 30]  β3-adrenergic receptor (Homo sapiens, UniProt P13945)            µM                0.001
 8  O=C1N=C(N2CCOCC2)SC1=Cc1ccc(N2CCC(NC[C@H](O)c3cccc(Cl)c3)CC2)cc1 [Example 25]  β3-adrenergic receptor (Homo sapiens, UniProt P13945)            µM                 0.45
 9  Cl.Cl.O=C1N=C(N2CCOCC2)SC1=Cc1ccc(N2CCC(NC[C@H](O)COc3ccccc3)CC2)cc1 [Example 22, dihydrochloride salt]  β3-adrenergic receptor (Homo sapiens, UniProt P13945)            µM                 0.04
10  O=C1N=C(NC2CCN(Cc3ccccc3)CC2)SC1=Cc1ccc(N2CCC(NC[C@H](O)COc3cccc4[nH]c(=O)[nH]c34)CC2)cc1 [Example 3]  β3-adrenergic receptor (Homo sapiens, UniProt P13945)            µM                 0.03
11  O=C(O)CC[C@H](NC1=NC(=O)C(=Cc2ccc(N3CCC(NC[C@H](O)COc4cccc5[nH]c(=O)[nH]c45)CC3)cc2)S1)C(=O)O [Example 29]  β3-adrenergic receptor (Homo sapiens, UniProt P13945)            µM                0.017
12  CS(=O)(=O)Nc1cc(C(O)CNCCOc2ccc(C=C3SC(N4CCCCC4)=NC3=O)cc2)ccc1O (stereo not shown) [Example 33]  β3-adrenergic receptor (Homo sapiens, UniProt P13945)            µM                0.002
13  O=C1CCc2c(OC[C@@H](O)CNCCOc3ccc(C=C4SC(N5CCCCC5)=NC4=O)cc3)ccc(O)c2N1 [Example 34]  β3-adrenergic receptor (Homo sapiens, UniProt P13945)            µM                0.003

* * *

TESTED_SYSTEM: β3-adrenergic receptor (Homo sapiens, UniProt P13945)
Construct: Full length β3 AR clones (402 amino acids) containing the last 6 amino acids of hβ3-AR are prepared; expressed in transfected cells; host or cells: CHO (Chinese hamster ovary) cells
TEST_DESCRIPTION: cAMP accumulation (SPA) in CHO cells transfected with human β3 adrenergic receptor
Assay type: cell-based
EXPERIMENTAL_CONDITIONS: maximal response relative to maximal response of isoproterenol at 10^-5 M
EXPERIMENTAL_READOUT: IA(β3)

> print(dat)
                           structure.string  quantitative.result
1  O=C1N=C(N2CCOCC2)SC1=Cc1ccc(N2CCC(NC[C@H](O)c3cccc(Cl)c3)CC2)cc1                 0.51
2  CN(C)CCCNC1=NC(=O)C(=Cc2ccc(N3CCC(NC[C@H](O)COc4ccccc4)CC3)cc2)S1                 0.85
3  O=C1N=C(NC2CCN(Cc3ccccc3)CC2)SC1=Cc1ccc(N2CCC(NC[C@H](O)COc3cccc4[nH]c(=O)[nH]c34)CC2)cc1                 0.52

* * *

Recorded melting point for the following molecules
EXPERIMENTAL_READOUT: melting point

> print(dat)
                                    molecule                result
 1  CCCCCCNC1=NC(=O)C(=Cc2ccc(N3CCC(NC[C@H](O)COc4ccccc4)CC3)cc2)S1 [Example 27]  182 to 184 °C (dec.)
 2  O=C1CCc2c(OC[C@@H](O)CNCCOc3ccc(C=C4SC(N5CCCCC5)=NC4=O)cc3)ccc(O)c2N1 [Example 34]       > 115 °C (dec.)
 3  O=C1N=C(NCCN2CCOCC2)SC1=Cc1ccc(N2CCC(NC[C@H](O)COc3cccc4[nH]c(=O)[nH]c34)CC2)cc1 [Example 2]       > 140 °C (dec.)
 4  O=C(O)CC[C@H](NC1=NC(=O)C(=Cc2ccc(N3CCC(NC[C@H](O)COc4cccc5[nH]c(=O)[nH]c45)CC3)cc2)S1)C(=O)O [Example 29]       > 270 °C (dec.)
 5  CN1CCN(C2=NC(=O)C(=Cc3ccc(N4CCC(NC[C@H](O)COc5ccc(O)cc5)CC4)cc3)S2)CC1 [Example 24]       > 210 °C (dec.)
 6  O=C1N=C(N2CCOCC2)SC1=Cc1ccc(N2CCC(NC[C@H](O)c3cccc(Cl)c3)CC2)cc1 [Example 25]        > 70 °C (dec.)
 7  O=C1N=C(N2CCOCC2)SC1=Cc1ccc(N2CCC(NC[C@H](O)COc3cccc4[nH]c(=O)[nH]c34)CC2)cc1 [Example 18]       > 150 °C (dec.)
 8  O=C1N=C(NC2CCN(Cc3ccccc3)CC2)SC1=Cc1ccc(N2CCC(NC[C@H](O)COc3ccc(O)cc3)CC2)cc1 [Example 4]       > 175 °C (dec.)
 9  O=C1N=C(NO)SC1=Cc1ccc(N2CCC(NC[C@H](O)COc3cccc4[nH]c(=O)[nH]c34)CC2)cc1 [Example 10]  201 to 213 °C (dec.)
10  O=C1N=C(N2CCOCC2)SC1=Cc1ccc(N2CCC(NC[C@H](O)COc3ccc(O)cc3)CC2)cc1 [Example 23]       > 100 °C (dec.)
11  O=C1N=C(NC2CCN(Cc3ccccc3)CC2)SC1=Cc1ccc(N2CCC(NC[C@H](O)COc3cccc4[nH]c(=O)[nH]c34)CC2)cc1 [Example 3]       > 165 °C (dec.)

* * *

Recorded pEC50 for the following compounds
TESTED_SYSTEM: β3-adrenergic receptor (Homo sapiens, UniProt P13945)
Construct: Full length β3 AR clones (402 amino acids) containing the last 6 amino acids of hβ3-AR are prepared; expressed in transfected cells; host or cells: CHO (Chinese hamster ovary) cells
TEST_DESCRIPTION: cAMP accumulation (SPA) in CHO cells transfected with human β3 adrenergic receptor
Assay type: cell-based
EXPERIMENTAL_CONDITIONS: CHO cells expressing human β3-AR; cAMP; 30 min, 37° C.; 10^-9 M to 10^-5 M
pEC50: −log10 of the molar value.
EXPERIMENTAL_READOUT: pEC50

> print(dat)
                                   compound                             tested.system  quantitative.result
1  Cl.O=C1N=C(N2CCCCC2)SC1=Cc1ccc(OCCNC[C@H](O)COc2ccc(O)cc2)cc1 [Example 31, hydrochloride salt]  β3-adrenergic receptor (Homo sapiens, UniProt P13945)                 6.68
2  CNC1=NC(=O)C(=Cc2ccc(N3CCC(NC[C@H](O)COc4cccc5[nH]c(=O)[nH]c45)CC3)cc2)S1 [Example 1]  β3-adrenergic receptor (Homo sapiens, UniProt P13945)                 8.05
3  O=C1N=C(N2CCCCC2)SC1=Cc1ccc(N2CCC(NC[C@H](O)COc3ccc(O)cc3)CC2)cc1 [Example 16]  β3-adrenergic receptor (Homo sapiens, UniProt P13945)                 7.12
4  CCOC(=O)CCNC1=NC(=O)C(=Cc2ccc(N3CCC(NC[C@H](O)COc4cccc5[nH]c(=O)[nH]c45)CC3)cc2)S1 [Example 8]  β3-adrenergic receptor (Homo sapiens, UniProt P13945)                 8.10
5  O=C1N=C(N2CCOCC2)SC1=Cc1ccc(N2CCC(NC[C@H](O)COc3cccc4[nH]c(=O)[nH]c34)CC2)cc1 [Example 18]  β3-adrenergic receptor (Homo sapiens, UniProt P13945)                 8.52
6  O=C(O)CCNC1=NC(=O)C(=Cc2ccc(N3CCC(NC[C@H](O)COc4cccc5[nH]c(=O)[nH]c45)CC3)cc2)S1 [Example 9]  β3-adrenergic receptor (Homo sapiens, UniProt P13945)                 8.15
7  O=C1N=C(NO)SC1=Cc1ccc(N2CCC(NC[C@H](O)COc3cccc4[nH]c(=O)[nH]c34)CC2)cc1 [Example 10]  β3-adrenergic receptor (Homo sapiens, UniProt P13945)                 7.72
